Biological target: Recombinant GPVI-Fc (extracellular domain of human GPVI fused to human IgG1 Fc domain) (Homo sapiens, UniProt Q9HCN6)
Sequence (Q9HCN6 21-267): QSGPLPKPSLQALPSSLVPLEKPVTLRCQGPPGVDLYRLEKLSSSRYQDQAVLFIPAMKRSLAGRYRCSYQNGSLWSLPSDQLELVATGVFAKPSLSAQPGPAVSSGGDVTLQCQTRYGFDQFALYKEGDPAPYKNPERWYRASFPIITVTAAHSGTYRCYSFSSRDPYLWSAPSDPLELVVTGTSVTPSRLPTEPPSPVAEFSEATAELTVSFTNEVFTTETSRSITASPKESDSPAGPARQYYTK
Experiment: SPR
pKd: −log10 of the molar value.
Measurement type: pKd

Example binders with recorded pKd:
# Binder, pKd
records = [
    ("ACT006, humanized anti-GPVI Fab (VL2b + VH3) (Fab, V domains shown) VH: QVQLVQSGAEVKKPGASVKVSCKASGYTFTSYNMHWVRQAPGQGLEWMGGIYPGNGDTSYNQKFQGRVTMTRDTSTSTVYMELSSLRSEDTAVYYCARGTVVGDWYFDVWGQGTLVTVSS VL: DIQMTQSPSSLSASVGDRVTITCSASQSLENSNGNTYLNWYQQKPGKAPKLLIYRVSNRFSGVPSRFSGSGSGTDFTLTISSLQPEDFATYYCLQLTHVPWTFGQGTKVEIK", "> 8.10"),
    ("ACT016, humanized anti-GPVI Fab (VL8b + VH2) (Fab, V domains shown) VH: EVQLVESGGGLVQPGGSLRLSCAASGYTFTSYNMHWVRQAPGKGLEWVGGIYPGNGDTSYNADFKRRFTFSLDTSKSTAYLQMNSLRAEDTAVYYCARGTVVGDWYFDVWGQGTLVTVSS VL: DIQMTQSPSSLSASVGDRVTITCRSSQSLENSNGNTYLNWYQQKPGKAPKLLIYRVSNRFSGVPSRFSGSGSGTDFTFTISSLQPEDIATYYCLQLTHVPWTFGQGTKVEIT", "> 7.60"),
]

Moving on to the next binder.
Q. Look at this binder and give its reported pKd. ACT005, humanized anti-GPVI Fab (VL2b + VH2) (Fab, V domains shown) VH: EVQLVESGGGLVQPGGSLRLSCAASGYTFTSYNMHWVRQAPGKGLEWVGGIYPGNGDTSYNADFKRRFTFSLDTSKSTAYLQMNSLRAEDTAVYYCARGTVVGDWYFDVWGQGTLVTVSS VL: DIQMTQSPSSLSASVGDRVTITCSASQSLENSNGNTYLNWYQQKPGKAPKLLIYRVSNRFSGVPSRFSGSGSGTDFTLTISSLQPEDFATYYCLQLTHVPWTFGQGTKVEIK
A. > 7.60
